Target: soluble guanylate cyclase (sGC), α1 and β1 subunits of guanylate cyclase expressed in Sf9 cells (Homo sapiens, UniProt Q02108+Q02153)
Construct: made in house; host or cells: Sf9 insect cells (baculovirus co-infection)
Sequence (Q02108 whole entry): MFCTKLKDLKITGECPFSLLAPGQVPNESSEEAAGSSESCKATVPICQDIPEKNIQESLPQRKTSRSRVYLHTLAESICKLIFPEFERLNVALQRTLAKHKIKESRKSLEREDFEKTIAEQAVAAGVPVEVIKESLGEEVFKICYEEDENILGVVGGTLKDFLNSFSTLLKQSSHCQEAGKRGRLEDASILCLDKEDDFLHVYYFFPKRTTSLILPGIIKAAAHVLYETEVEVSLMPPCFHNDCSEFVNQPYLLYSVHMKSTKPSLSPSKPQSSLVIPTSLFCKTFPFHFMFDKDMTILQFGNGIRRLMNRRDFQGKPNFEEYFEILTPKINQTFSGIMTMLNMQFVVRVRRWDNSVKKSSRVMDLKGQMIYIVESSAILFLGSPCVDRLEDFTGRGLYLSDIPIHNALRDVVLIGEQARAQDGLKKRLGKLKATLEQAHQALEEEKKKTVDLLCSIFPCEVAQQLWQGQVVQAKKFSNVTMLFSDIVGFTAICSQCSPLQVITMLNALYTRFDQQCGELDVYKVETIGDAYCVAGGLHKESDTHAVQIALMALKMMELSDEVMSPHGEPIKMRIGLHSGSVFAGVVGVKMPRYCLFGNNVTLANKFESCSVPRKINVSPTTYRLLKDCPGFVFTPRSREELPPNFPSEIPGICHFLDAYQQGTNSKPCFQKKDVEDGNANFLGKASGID
Sequence (Q02153 whole entry): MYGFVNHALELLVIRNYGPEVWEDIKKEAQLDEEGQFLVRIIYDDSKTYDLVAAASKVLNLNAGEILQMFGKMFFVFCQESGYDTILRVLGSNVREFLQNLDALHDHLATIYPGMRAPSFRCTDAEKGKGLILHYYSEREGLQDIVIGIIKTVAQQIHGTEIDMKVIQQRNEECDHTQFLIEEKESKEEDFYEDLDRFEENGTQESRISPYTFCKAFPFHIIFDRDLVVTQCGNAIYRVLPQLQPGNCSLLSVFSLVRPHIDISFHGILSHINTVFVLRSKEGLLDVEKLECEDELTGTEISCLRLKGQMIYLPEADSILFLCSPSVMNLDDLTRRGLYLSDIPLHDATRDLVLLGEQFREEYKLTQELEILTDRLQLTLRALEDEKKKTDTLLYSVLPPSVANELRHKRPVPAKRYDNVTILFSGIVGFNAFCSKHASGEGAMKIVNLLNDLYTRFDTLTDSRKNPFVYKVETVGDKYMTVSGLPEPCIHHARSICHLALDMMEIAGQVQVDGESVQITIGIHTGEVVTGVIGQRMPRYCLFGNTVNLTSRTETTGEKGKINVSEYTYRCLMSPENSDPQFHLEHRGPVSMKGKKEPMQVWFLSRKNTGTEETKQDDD
Assay: Guanylate cyclase assay (formation of cyclic GMP from GTP)
Assay type: biochemical
Settings: (activity of compound at 100 μM with 1 μM SNP)−(activity of compound at 100 μM)/(activity of SNP at 1 μM)−(basal activity of sGC)
Method: Sf9 cells were cultured in Sf-90011 medium supplemented with 10% (v/v) fetal calf serum at 28° C. to give a count of 6×10^5 cells/ml. […] Guanylate cyclase activity was measured by the formation of cyclic GMP from GTP in a total volume of 100 μl. […] Compounds of the present invention were tested at 100 μM with and without 1 μM sodium nitro prusside (SNP). […] Mean basal efficacy, in Table 1, was expressed as a percentage of 100 μM YC-1 (without SNP). […]
measured.quantity: Mean activation at 100 μM

[[record]]
molecule = "O=C(/C=C/c1ccccc1Sc1ccc(Cl)cc1)NCCCCO"
measured_quantity = "Mean activation at 100 μM"
recorded_measurement = 6.9

[[record]]
molecule = "O=C(/C=C/c1c(F)cccc1Sc1ccc(Cl)cc1)NCCCCO"
measured_quantity = "Mean activation at 100 μM"
recorded_measurement = 3.8

[[record]]
molecule = "Cc1cccc(Sc2ccccc2/C=C/C(=O)NC2CCC(O)CC2)c1 (stereo not shown)"
measured_quantity = "Mean activation at 100 μM"
recorded_measurement = 2.7


(a) CCCCCSc1ccccc1/C=C/C(=O)NC1CCC(O)CC1 (stereo not shown)
(b) CNCCCCNC(=O)CCc1ccccc1Sc1ccc(Cl)cc1
Input line: Of a and b , whose reported Mean activation at 100 μM is numerically smaller? The response must carry the label of the picked entry.
Output line: b

(P) COc1ccc(Sc2ccc(C)cc2)c(/C=C/C(=O)NC2CCC(O)CC2)c1 (stereo not shown)
(Q) Cc1ccc(Sc2ccccc2/C=C/C(=O)NCCCCO)cc1
Input line: Form field 'greater Mean activation at 100 μM' accepts P or Q ; which applies? Mark your answer with the label of the selected entry.
Output line: Q
(Q: 9.2, P: 3.5)

(P) CNCCCCCNC(=O)CCc1ccccc1Sc1ccc(Cl)cc1
(Q) CC(C)CCSc1ccccc1/C=C/C(=O)N1CCC(C(N)=O)CC1
Input line: Hey, which is lower on measured Mean activation at 100 μM, P or Q ? Provide the label of your selected option as the answer.
Output line: P
